assay.target: T1, RRAS1, mGppNHp-bound (human, UniProt P10301 1-218)
T1 construct: human RRAS (RRAS1); Loaded with mGppNHp
T1 sequence (looked up): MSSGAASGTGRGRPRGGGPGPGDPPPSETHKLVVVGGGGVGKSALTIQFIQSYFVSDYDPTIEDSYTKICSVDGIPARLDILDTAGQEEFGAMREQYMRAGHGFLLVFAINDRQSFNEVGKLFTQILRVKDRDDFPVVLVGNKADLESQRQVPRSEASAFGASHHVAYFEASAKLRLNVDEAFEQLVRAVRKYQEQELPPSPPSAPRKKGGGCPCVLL
test.summary: fluorescence polarisation; increasing concentrations of the RA/RB domain as MBP fusion protein (0.002-300 µM; or MBP alone) titrated to mGppNHp-bound RAS protein (1 µM); 30 mM Tris-HCl pH 7.4, 100 mM NaCl, 5 mM MgCl2, 3 mM DTT; Kd from a quadratic ligand-binding equation
cond: both partners purified
pKd: −log10 of the molar value.

binder: RASSF8 RA domain, MBP fusion protein (domain or fragment, human, UniProt Q8NHQ8 1-82, looked up, RASSF8 RA domain, aa 1-82 of Q8NHQ8) MELKVWVDGVQRIVCGVTEVTTCQEVVIALAQAIGRTGRYTLIEKWRDTERHLAPHENPIISLNKWGQYASDVQLILRRTGP
pKd: 3.94
//
binder: RASSF6 RA domain, MBP fusion protein (domain or fragment, human, UniProt Q6ZTQ3 218-306, looked up, RASSF6 RA domain, aa 218-306 of Q6ZTQ3) YNHETSIFIPAFESETKVRVNSNMRTEEVIKQLLQKFKIENSPQDFALHIIFATGEQRRLKKTDIPLLQRLLQGPSEKNARIFLMDKDA
pKd: 3.95
//
binder: RASSF5 RA domain, MBP fusion protein (domain or fragment, UniProt Q5EBH1 200-358, looked up, RASSF5 RA domain, aa 200-358 of Q5EBH1 as the methods print it; also called NORE1; RAPL) PPTIQEIKQKIDSYNSREKHCLGMKLSEDGTYTGFIKVHLKLRRPVTVPAGIRPQSIYDAIKEVNPAATTDKRTSFYLPLDAIKQLHISSTTTVSEVIQGLLKKFMVVDNPQKFALFKRIHKDGQVLFQKLSIADYPLYLRLLAGPDTDVLSFVLKENE
pKd: 4.25
//
binder: RASSF10 RA domain, MBP fusion protein (domain or fragment, human, UniProt A6NK89 4-133, looked up, RASSF10 RA domain, aa 4-133 of A6NK89) SEKKISVWICQEEKLVSGLSRRTTCSDVVRVLLEDGCRRRRRQRRSRRLGSAGDPHGPGELPEPPNEDDEDDDEALPQGMLCGPPQCYCIVEKWRGFERILPNKTRILRLWAAWGEEQENVRFVLVRSEA
pKd: 4.00
